- TARGET OR SYSTEM: Serine/threonine-protein kinase PAK 4 (Homo sapiens)
In this scheme, each record receives a class according to its ΔTm; the ranges are lowest (below 0.6 °C), middle (0.6 °C to below 2 °C), highest (2 °C or more)

[[record]]
smi = "CCCNC(=O)Nc1ccc(Oc2ncnc3cc(OC)c(OC)cc23)cc1Cl"
class_name = "lowest"

[[record]]
smi = "Ic1cccc(CSc2nnc(-c3ccncc3)o2)c1"
class_name = "lowest"

[[record]]
smi = "C[C@@H](N)[C@H]1CC[C@H](C(=O)Nc2ccncc2)CC1"
class_name = "middle"

[[record]]
smi = "O=S(=O)(c1cccc2c(Cl)cccc12)N1CCCNCC1"
class_name = "middle"

[[record]]
smi = "O=C1Nc2ccccc2/C1=C1/Nc2ccccc2/C1=N\\O"
class_name = "highest"

[[record]]
smi = "Cn1cc(C2=C(c3cn(CCCN)c4ccccc34)C(=O)NC2=O)c2ccccc21"
class_name = "highest"

[[record]]
smi = "COc1nccc(-c2c(-c3ccc(F)cc3)ncn2[C@H]2CC[C@H](O)CC2)n1"
class_name = "middle"

[[record]]
smi = "Cc1nc(N)sc1-c1ccnc(Nc2cccc([N+](=O)[O-])c2)n1"
class_name = "middle"


Numbers sourced from ChEMBL document CHEMBL1145498.
